assay: NCI Yeast Anticancer Drug Screen. Data for the bub3 strain (AID 167)
assay setup: S. cerevisiae bub3 mutant strain, at 50.0 µM (retest, dose inferred, filed as 5.0), hits give high values
Compounds without any hit were thinned out: in the full panel of roughly 79,000, 15% have a hit.
Entry flag: t if growth inhibition reaches 80%; f if it does not.

Here are 4 molecules together with their reported answers.
molecule: CCC(=O)OCCn1c2nc(=O)[nH]c(=O)c-2nc2cc(C)c(C)cc21
answer label: f

molecule: COC(=O)CCNc1c2ccccc2nc2cccc([N+](=O)[O-])c12
answer label: t

molecule: COc1ccc(O)c(/C=N\Nc2ccccc2)c1
answer label: f

molecule: O=C(/C=C/c1cccc(Br)c1)c1cccs1
answer label: t

[ask] Answer whether growth inhibition of CC(CC(C)(C)[N+](C)(C)C)[N+](C)(C)C (stereo not drawn) is greater than or equal to 80%.
[reply] t

[ask] Answer whether growth inhibition of "CC(C)/C(Cl)=N\OC(=O)Nc1cccc(Cl)c1" is greater than or equal to 80%.
[reply] t

[ask] Answer whether growth inhibition of FC(F)(F)c1cc(NC(=S)N2c3ccccc3-n3cccc3C2c2cccnc2)cc(C(F)(F)F)c1 (stereo not drawn) is greater than or equal to 80%.
[reply] f

[ask] Answer whether growth inhibition of "O=C(Nc1ccc(Cl)cc1)OCC#CCCl" is greater than or equal to 80%.
[reply] f

[ask] Answer whether growth inhibition of "Cc1ccc(Nc2nc3c(=O)n(C)c(=O)n(C)c3nc2Nc2ccc(C)cc2)cc1" is greater than or equal to 80%.
[reply] f

[ask] Answer whether growth inhibition of "COc1ccc(/C(C)=N/OC(=O)c2c(-c3ccccc3Cl)noc2C)cc1CN1CCOCC1" is greater than or equal to 80%.
[reply] t

Data origin, for the record: PubChem BioAssay (NCI)
